Each entry below carries its reported ID90.
system: HSV-2; assay: Concentration required to inhibit 90% of virus yield during 24-h growth period in HSV-2 cell lines; format: functional, Human alphaherpesvirus 2
Kindly provide the numeric value in µM only, without the unit symbol.

-- ask ID90 for C=C1C(n2ccc(N)nc2=O)O[C@H](CO)[C@@H]1O (stereo partly specified) ?
-- reply 5

-- ask Request: `C=C1[C@H](n2cc(C)c(N)nc2=O)O[C@H](CO)[C@H]1O`
-- reply 125

-- ask Note, next up: `C=C1[C@H](n2cc(F)c(N)nc2=O)O[C@H](CO)[C@H]1O`
-- reply 5

Then this compound:
-- ask Endpoint output: ID90 of `C=C1[C@H](n2ccc(=O)[nH]c2=O)O[C@H](CO)[C@H]1O` . Value?
-- reply 50

====

# log10 EC50 values compiled below
test system: CCRF-CEM; test: Concentration required to inhibit replication of CCRF-CEM cell lines by 50% after 72 hr incubation; type: functional; details: Homo sapiens, read-out: ED50 (the source's name)
Remember, log10 of EC50, in µM.

Use these answered entries as a reference point.
-- ask For the record `C=C1[C@H](n2cc(C)c(N)nc2=O)O[C@H](CO)[C@H]1O` , what value of log10 EC50 is listed for CCRF-CEM?
-- reply 1.34

-- ask Would you kindly repeat that for C=C1C(n2ccc(N)nc2=O)O[C@H](CO)[C@@H]1O (some centres undefined) ?
-- reply -1.52

-- ask Could you do the same for `C=C1[C@H](n2cc(F)c(=O)[nH]c2=O)O[C@H](CO)[C@H]1O` , please?
-- reply 1.48

-- ask Can you check `C=C1[C@H](n2cc(C)c(=O)[nH]c2=O)O[C@H](CO)[C@H]1O` next?
-- reply 1.00

-- ask Same lookup for `Nc1ccn([C@@H]2O[C@H](CO)[C@@H](O)[C@@H]2O)c(=O)n1` , please.
-- reply -2.22

Lab note: next compound to report on.
-- ask API: value(readout= log10 EC50, system= CCRF-CEM, query= `C=C1[C@H](n2cc(F)c(N)nc2=O)O[C@H](CO)[C@H]1O` )
-- reply -1.30

====

tested on: P388; test: Concentration required to inhibit replication of P388 cell lines by 50% after 72 hr incubation; assay type: functional; settings: Mus musculus, P388, 72 h; read-out: ED50 (the source's name)
Property: EC50; scope: individual molecules

Illustrative cases are given below, each with its answer.
-- ask Entry under review: `C=C1[C@H](n2cc(F)c(N)nc2=O)O[C@H](CO)[C@H]1O` . Reported EC50?
-- reply 0.6 µM

-- ask Next molecule up: C=C1C(CO)OC(n2ccc(N)nc2=O)C1O (centres undefined)
-- reply > 100 µM

-- ask // next record C=C1C(CO)OC(n2ccc(=O)[nH]c2=O)C1O (centres undefined)
-- reply > 100 µM

Turning now to a further record.
-- ask Entry `C=C1[C@H](n2cc(C)c(N)nc2=O)O[C@H](CO)[C@H]1O` : reported EC50 = ?
-- reply > 100 µM

====

The following molecules are listed with their measured pEC50 values.
test system: P388; experiment: Concentration required to inhibit replication of P388 cell lines by 50% after 72 hr incubation; type: functional; conditions: Mus musculus, P388, 72 h; read-out: ED50 (the source's name)
pEC50: −log10 of the molar value.

-- ask # query: pEC50 of entry `C=C1[C@H](n2ccc(=O)[nH]c2=O)O[C@H](CO)[C@H]1O`
-- reply < 4.00

-- ask Similarly, `C=C1[C@H](n2cc(F)c(=O)[nH]c2=O)O[C@H](CO)[C@H]1O` ?
-- reply < 4.00

-- ask Follow-up entry: `C=C1[C@H](n2cc(C)c(=O)[nH]c2=O)O[C@H](CO)[C@H]1O`
-- reply < 4.00

====

system: CCRF-CEM; assay: Concentration required to inhibit replication of CCRF-CEM cell lines by 50% after 72 hr incubation; assay type: functional; details: Homo sapiens, read-out: ED50 (the source's name)
pEC50: −log10 of the molar value.
Value kind: pEC50

Worked cases, answers included:
-- ask Which pEC50 is listed for C=C1C(CO)OC(n2ccc(N)nc2=O)C1O (stereo not drawn) ?
-- reply < 4.00

-- ask Repeat with `C=C1[C@H](n2ccc(=O)[nH]c2=O)O[C@H](CO)[C@H]1O`
-- reply < 4.00

Turning now to a further record.
-- ask So what does the record say about pEC50 for C=C1C(CO)OC(n2ccc(=O)[nH]c2=O)C1O (stereo not drawn) ?
-- reply < 4.00

Just for reference, ChEMBL document CHEMBL1125190 is where these values come from.
